- tgt: T1, MERS1 (Trypanosoma brucei brucei TREU927, UniProt B6SBM0 37-395)
- T1 sequence: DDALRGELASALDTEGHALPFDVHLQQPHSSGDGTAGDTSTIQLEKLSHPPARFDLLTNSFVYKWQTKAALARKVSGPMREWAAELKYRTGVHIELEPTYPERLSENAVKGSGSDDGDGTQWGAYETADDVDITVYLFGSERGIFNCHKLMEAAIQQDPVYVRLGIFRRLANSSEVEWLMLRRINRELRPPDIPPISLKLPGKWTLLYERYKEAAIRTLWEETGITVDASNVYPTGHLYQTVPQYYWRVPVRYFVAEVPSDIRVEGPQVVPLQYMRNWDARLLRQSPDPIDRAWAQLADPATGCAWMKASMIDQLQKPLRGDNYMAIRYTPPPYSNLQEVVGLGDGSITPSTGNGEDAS
- protocol: fluorescence polarization; FP: 25 mM Tris HCl pH 7.5, 50 mM NaCl, 5% (v/v) glycerol, 1 nM labeled RNA or DNA, 25 C
- measurement.conditions: protein: recombinant; tags: N-terminal His tag (pET15b, linker LVPRGSM); label: 5' fluorescein; single-stranded
measured.attribute: Kd (nM)
Give bare numbers, in nM.

Exercise: Return Kd for the following binder: AAGAGGGGGUU (ssRNA) [RNA G1A]
Solution: 39
